# Assay Target: KDR (Homo sapiens (Human))
# Sequence (P35968 20-1356): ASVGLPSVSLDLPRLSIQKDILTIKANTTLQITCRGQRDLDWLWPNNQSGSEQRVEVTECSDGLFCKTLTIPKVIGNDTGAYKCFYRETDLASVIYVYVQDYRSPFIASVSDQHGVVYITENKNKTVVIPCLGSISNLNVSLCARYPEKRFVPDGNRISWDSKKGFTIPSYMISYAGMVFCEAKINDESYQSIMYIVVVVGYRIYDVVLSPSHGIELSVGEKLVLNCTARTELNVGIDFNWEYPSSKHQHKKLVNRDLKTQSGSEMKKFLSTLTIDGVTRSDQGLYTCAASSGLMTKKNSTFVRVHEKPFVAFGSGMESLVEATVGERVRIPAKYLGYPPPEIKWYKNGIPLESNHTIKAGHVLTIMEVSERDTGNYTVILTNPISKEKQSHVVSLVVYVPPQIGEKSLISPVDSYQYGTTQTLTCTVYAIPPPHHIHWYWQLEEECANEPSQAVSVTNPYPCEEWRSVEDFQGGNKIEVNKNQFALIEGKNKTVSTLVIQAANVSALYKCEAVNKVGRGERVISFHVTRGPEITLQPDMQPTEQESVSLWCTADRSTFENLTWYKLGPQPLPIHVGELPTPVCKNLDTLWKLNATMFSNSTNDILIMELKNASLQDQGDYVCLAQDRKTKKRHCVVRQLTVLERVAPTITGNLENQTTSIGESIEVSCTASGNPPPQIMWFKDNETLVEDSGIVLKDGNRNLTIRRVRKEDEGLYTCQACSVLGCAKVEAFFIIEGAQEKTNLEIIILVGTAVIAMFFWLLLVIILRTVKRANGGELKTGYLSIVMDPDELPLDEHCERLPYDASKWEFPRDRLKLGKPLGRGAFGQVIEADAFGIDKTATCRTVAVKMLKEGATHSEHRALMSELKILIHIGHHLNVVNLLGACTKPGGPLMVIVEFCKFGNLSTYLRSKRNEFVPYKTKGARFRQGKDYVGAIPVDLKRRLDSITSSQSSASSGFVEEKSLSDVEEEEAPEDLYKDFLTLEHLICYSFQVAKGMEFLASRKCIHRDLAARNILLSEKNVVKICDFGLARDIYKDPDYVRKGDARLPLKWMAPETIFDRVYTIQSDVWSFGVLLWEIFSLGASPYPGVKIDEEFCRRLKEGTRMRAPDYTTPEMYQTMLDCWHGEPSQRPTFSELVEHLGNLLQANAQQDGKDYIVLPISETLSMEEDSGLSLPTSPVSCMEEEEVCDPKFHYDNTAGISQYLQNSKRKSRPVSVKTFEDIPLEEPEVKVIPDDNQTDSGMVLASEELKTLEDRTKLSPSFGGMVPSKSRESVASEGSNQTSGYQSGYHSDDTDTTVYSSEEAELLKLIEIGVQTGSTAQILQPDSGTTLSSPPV
# Assay: KDR enzyme assay (CisBio HTRF kinEASE)
# Assay type: biochemical
# Experimental Conditions: ATP at Km
For each of the compounds below, state its IC50.

Recorded results for 4 compounds are shown here.
{"Compound": "CN(C)C1CCN(CCn2nc(-c3[nH]c4ncccc4c3Cl)c3c(N)ncnc32)CC1 [Example 77]", "IC50": "> 30 µM"}
{"Compound": "CC(C)(C)OC(=O)N[C@H]1CC[C@H](n2nc(-c3cc4cccnc4[nH]3)c3c(N)ncnc32)CC1 [Example 28]", "IC50": "> 30 µM"}
{"Compound": "CC(C)n1nc(-c2cc3ccccc3[nH]2)c2c(N)ncnc21 [Example 44]", "IC50": "4.57 µM"}
{"Compound": "CS(=O)(=O)N1CCC(n2nc(-c3[nH]c4ccccc4c3Cl)c3c(N)ncnc32)CC1 [Example 4]", "IC50": "> 30 µM"}

Now turn to the next compound.
Given the compound Nc1ncnc2c1c(-c1cc3cccnc3[nH]1)nn2[C@H]1CC[C@H](NC(=O)C2CC2)CC1 [Example 36] , what is its reported IC50? > 30 µM

====

# Assay Target: RET^V804M (Homo sapiens (Human), UniProt P07949, V804M)
# Sequence (P07949 29-1114 V804M): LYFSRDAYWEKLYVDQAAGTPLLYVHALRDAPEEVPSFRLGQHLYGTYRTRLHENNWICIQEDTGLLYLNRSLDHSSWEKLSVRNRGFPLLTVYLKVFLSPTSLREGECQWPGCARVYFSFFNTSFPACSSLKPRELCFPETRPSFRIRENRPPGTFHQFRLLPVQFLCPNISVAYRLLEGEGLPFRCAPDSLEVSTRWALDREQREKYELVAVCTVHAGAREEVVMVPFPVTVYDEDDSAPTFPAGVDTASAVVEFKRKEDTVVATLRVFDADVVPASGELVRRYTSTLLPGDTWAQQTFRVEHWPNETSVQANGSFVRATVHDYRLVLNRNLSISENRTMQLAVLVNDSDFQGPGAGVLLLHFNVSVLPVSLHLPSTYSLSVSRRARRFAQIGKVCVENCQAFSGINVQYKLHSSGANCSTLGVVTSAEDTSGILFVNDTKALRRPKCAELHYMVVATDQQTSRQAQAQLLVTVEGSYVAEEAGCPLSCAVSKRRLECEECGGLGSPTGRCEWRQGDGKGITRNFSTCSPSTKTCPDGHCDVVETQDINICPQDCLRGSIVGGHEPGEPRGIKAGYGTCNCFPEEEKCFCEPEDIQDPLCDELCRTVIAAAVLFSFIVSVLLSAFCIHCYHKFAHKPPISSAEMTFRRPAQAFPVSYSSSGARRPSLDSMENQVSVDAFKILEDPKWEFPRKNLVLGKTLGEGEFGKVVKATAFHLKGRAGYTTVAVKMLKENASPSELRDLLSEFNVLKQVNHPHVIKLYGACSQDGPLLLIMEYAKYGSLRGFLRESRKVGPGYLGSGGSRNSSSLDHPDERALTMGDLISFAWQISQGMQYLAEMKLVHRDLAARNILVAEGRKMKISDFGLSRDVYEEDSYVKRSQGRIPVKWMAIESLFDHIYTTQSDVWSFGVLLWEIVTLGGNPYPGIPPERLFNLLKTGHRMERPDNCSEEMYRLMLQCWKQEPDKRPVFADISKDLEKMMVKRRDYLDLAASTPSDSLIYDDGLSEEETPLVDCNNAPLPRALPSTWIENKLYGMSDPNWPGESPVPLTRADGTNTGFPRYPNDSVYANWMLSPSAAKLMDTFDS
# Assay: RET^V804M enzyme assay
pIC50: −log10 of the molar value.
For each of the compounds below, state its pIC50.

{"Structure": "Cn1nc(-c2[nH]c3ncccc3c2Cl)c2c(N)ncnc21", "Assay Target": "RET^V804M (Homo sapiens (Human), UniProt P07949, V804M)", "Readout Name": "pIC50", "Reported Result": "< 4.52"}
{"Structure": "Nc1ncnc2c1c(-c1[nH]c3ncccc3c1Cl)nn2C1CCCCC1", "Assay Target": "RET^V804M (Homo sapiens (Human), UniProt P07949, V804M)", "Readout Name": "pIC50", "Reported Result": "< 4.52"}

Now turn to the next compound.
API: value(readout=pIC50, system=RET^V804M (Homo sapiens (Human), UniProt P07949, V804M)) for record CC(C)n1nc(-c2cc3ccccc3[nH]2)c2c(N)ncnc21 5.73

====

Entries with reported IC50 on RET (Homo sapiens (Human))
Sequence (P07949 29-1114): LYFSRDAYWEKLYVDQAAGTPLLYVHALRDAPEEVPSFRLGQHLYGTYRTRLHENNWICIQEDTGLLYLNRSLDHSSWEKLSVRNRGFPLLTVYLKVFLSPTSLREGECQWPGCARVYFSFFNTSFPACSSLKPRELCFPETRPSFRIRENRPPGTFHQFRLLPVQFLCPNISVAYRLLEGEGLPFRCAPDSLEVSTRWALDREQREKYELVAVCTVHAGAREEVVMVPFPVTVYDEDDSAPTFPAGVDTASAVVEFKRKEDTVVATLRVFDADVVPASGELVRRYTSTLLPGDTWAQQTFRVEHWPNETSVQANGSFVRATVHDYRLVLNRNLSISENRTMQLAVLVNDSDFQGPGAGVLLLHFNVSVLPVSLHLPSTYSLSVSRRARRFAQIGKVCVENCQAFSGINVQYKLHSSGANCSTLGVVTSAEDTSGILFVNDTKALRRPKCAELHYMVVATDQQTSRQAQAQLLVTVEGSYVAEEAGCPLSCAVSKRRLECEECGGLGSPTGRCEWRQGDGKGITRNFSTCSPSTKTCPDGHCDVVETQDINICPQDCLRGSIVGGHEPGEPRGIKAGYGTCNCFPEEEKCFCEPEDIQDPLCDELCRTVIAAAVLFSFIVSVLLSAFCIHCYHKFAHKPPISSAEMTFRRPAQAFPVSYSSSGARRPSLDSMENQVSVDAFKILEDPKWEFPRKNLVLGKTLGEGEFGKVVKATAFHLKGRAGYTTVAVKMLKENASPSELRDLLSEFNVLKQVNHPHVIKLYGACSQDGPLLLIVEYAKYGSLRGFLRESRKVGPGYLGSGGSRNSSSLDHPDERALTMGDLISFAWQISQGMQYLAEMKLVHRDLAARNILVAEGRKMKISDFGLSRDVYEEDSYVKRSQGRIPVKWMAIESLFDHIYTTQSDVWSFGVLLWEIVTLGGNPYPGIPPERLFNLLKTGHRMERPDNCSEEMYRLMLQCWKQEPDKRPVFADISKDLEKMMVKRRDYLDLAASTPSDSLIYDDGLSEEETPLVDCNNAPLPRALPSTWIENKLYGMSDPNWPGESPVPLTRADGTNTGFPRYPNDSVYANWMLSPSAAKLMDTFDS

{"Compound": "Cn1nc(-c2[nH]c3ncccc3c2Cl)c2c(N)ncnc21 [Example 65]", "Reported Result": "> 30 µM"}
{"Compound": "CC(C)n1nc(-c2cc3ccccc3[nH]2)c2c(N)ncnc21 [Example 44]", "Reported Result": "0.0187 µM"}

Given the compound Nc1ncnc2c1c(-c1[nH]c3ncccc3c1Cl)nn2C1CCCCC1 [Example 67] , what is its reported IC50? > 30 µM

====

# Assay Target: BaF3 cell lines expressing KIF5B-RET (Homo sapiens, UniProt P07949)
# Sequence (P07949 29-1114 limits assumed, change not shown): as the sequence (P07949 29-1114) above
# Type: cell-based
# Experimental Conditions: read-out: RET Cell IC50
Readout Name: IC50 (nM)
Answers are plain numbers, in nM.

{"Compound": "Cn1nc(-c2[nH]c3ncccc3c2Cl)c2c(N)ncnc21 [Example 65]", "IC50, nM": 1010}

Now turn to the next compound.
API: value(readout=IC50, system=BaF3 cell lines expressing KIF5B-RET (Homo sapiens, UniProt P07949)) for record Nc1ncnc2c1c(-c1[nH]c3ncccc3c1Cl)nn2C1CCCCC1 [Example 67] 68.7
